test: In vivo tissue distribution test; design: species or system ICR mice; settings: mouse, testicle, po; ICR mice, p.o. 100 mg/kg, 2 hr; read-out: Testicle concentration
Each entry below carries its reported concentration at 2 hr.
Output spec: scalar in ng/g, unitless text.

[[record]]
molecule = "CO/N=C1/CN(c2nc3c(cc2F)c(=O)c(C(=O)O)cn3C2CC2)C[C@@]1(C)CN [L-aspartate (Example 1)]"
readout_value = 12900


GET /value?item= CON=C1CN(c2nc3c(cc2F)c(=O)c(C(=O)O)cn3C2CC2)C[C@@]1(C)CN.Cl [Hydrochloride (Comparative Example 3)] &field=concentration at 2 hr returns 17000

* * *

Readings of Content (%) Room temperature (after 3 weeks) for the listed molecules
experiment: Stability test in distilled water; assay type: physicochemical; details: 30 mg in 100 ml distilled water, room temperature, 3 weeks
Record the value in %, omitting the unit from your answer.

Previously resolved entries follow.
[[record]]
molecule = "CON=C1CN(c2nc3c(cc2F)c(=O)c(C(=O)O)cn3C2CC2)C[C@@]1(C)CN.O=P(O)(O)O [Phosphate (Comparative Example 6)]"
readout_value = 97.9

[[record]]
molecule = "CO/N=C1/CN(c2nc3c(cc2F)c(=O)c(C(=O)O)cn3C2CC2)C[C@@]1(C)CN [L-aspartate (Example 1)]"
readout_value = 98.0


The reported Content (%) Room temperature (after 3 weeks) of the molecule CON=C1CN(c2nc3c(cc2F)c(=O)c(C(=O)O)cn3C2CC2)C[C@@]1(C)CN.Cl [Hydrochloride (Comparative Example 3)] was 98.0

* * *

assay: In vivo tissue distribution test; parameters: species or system ICR mice; settings: mouse, plasma, po; ICR mice, p.o. 100 mg/kg, 2 hr; read-out: Plasma concentration
measure name: concentration at 2 hr (ng/mL)
Respond numerically; units are ng/mL and should not be typed.

[[record]]
compound = "CO/N=C1/CN(c2nc3c(cc2F)c(=O)c(C(=O)O)cn3C2CC2)C[C@@]1(C)CN [L-aspartate (Example 1)]"
measure_name = "concentration at 2 hr"
measurement_unit = "ng/mL"
readout_value = 8470


So for CON=C1CN(c2nc3c(cc2F)c(=O)c(C(=O)O)cn3C2CC2)C[C@@]1(C)CN.Cl [Hydrochloride (Comparative Example 3)] , the logged concentration at 2 hr turned out to be 12000

* * *

assay: In vivo tissue distribution test; set-up: species or system ICR mice; conditions: mouse, muscle, po; ICR mice, p.o. 100 mg/kg, 0.5 hr; read-out: Muscle concentration
measure name: concentration at 0.5 h (ng/g)
// note: answer is a bare numeric in ng/g

[[record]]
compound = "CON=C1CN(c2nc3c(cc2F)c(=O)c(C(=O)O)cn3C2CC2)C[C@@]1(C)CN.Cl [Hydrochloride (Comparative Example 3)]"
measurement_unit = "ng/g"
readout_value = 39800


CO/N=C1/CN(c2nc3c(cc2F)c(=O)c(C(=O)O)cn3C2CC2)C[C@@]1(C)CN [L-aspartate (Example 1)] yielded concentration at 0.5 h of 38000

* * *

assay: In vivo tissue distribution test; set-up: species or system ICR mice; conditions: mouse, brain, po; ICR mice, p.o. 100 mg/kg, 3 hr; read-out: Brain concentration
measure name: concentration at 3 h (ng/g)
Reply with just the number (in ng/g).

[[record]]
compound = "CO/N=C1/CN(c2nc3c(cc2F)c(=O)c(C(=O)O)cn3C2CC2)C[C@@]1(C)CN [L-aspartate (Example 1)]"
readout_value = 2020


Shift focus to the following entry.
According to the records, this compound CON=C1CN(c2nc3c(cc2F)c(=O)c(C(=O)O)cn3C2CC2)C[C@@]1(C)CN.Cl [Hydrochloride (Comparative Example 3)] displays concentration at 3 h of 1990

* * *

The entries below come with measured concentration at 8 h values attached.
assay: In vivo tissue distribution test; parameters: species or system ICR mice; conditions: mouse, lung, po; ICR mice, p.o. 100 mg/kg, 8 hr; read-out: Lung concentration
Number only, in ng/g; omit the unit.

[[record]]
compound = "CO/N=C1/CN(c2nc3c(cc2F)c(=O)c(C(=O)O)cn3C2CC2)C[C@@]1(C)CN [L-aspartate (Example 1)]"
readout_value = 11600


Kindly note the recorded concentration at 8 h for CON=C1CN(c2nc3c(cc2F)c(=O)c(C(=O)O)cn3C2CC2)C[C@@]1(C)CN.Cl [Hydrochloride (Comparative Example 3)] , which is 11400

* * *

experiment: In vivo tissue distribution test; parameters: species or system ICR mice; details: mouse, lung, po; ICR mice, p.o. 100 mg/kg, 2 hr; read-out: Lung concentration
measure name: concentration at 2 hr (ng/g)
All answers are understood in ng/g, so give the number only.

[[record]]
compound = "CON=C1CN(c2nc3c(cc2F)c(=O)c(C(=O)O)cn3C2CC2)C[C@@]1(C)CN.Cl [Hydrochloride (Comparative Example 3)]"
measure_name = "concentration at 2 hr"
readout_value = 63700


In the following, a different compound is considered.
// concentration at 2 hr value for CO/N=C1/CN(c2nc3c(cc2F)c(=O)c(C(=O)O)cn3C2CC2)C[C@@]1(C)CN [L-aspartate (Example 1)] : 52700

* * *

test: In vivo tissue distribution test; design: species or system ICR mice; settings: mouse, plasma, po; ICR mice, p.o. 100 mg/kg, 1 hr; read-out: Plasma concentration
measure name: concentration at 1 h
# answer = value followed by unit

[[record]]
molecule = "CON=C1CN(c2nc3c(cc2F)c(=O)c(C(=O)O)cn3C2CC2)C[C@@]1(C)CN.Cl [Hydrochloride (Comparative Example 3)]"
measure_name = "concentration at 1 h"
readout_value = "14200 ng/mL"


Consider the record given below.
concentration at 1 h reading for CO/N=C1/CN(c2nc3c(cc2F)c(=O)c(C(=O)O)cn3C2CC2)C[C@@]1(C)CN [L-aspartate (Example 1)] : 12200 ng/mL

* * *

experiment: In vivo tissue distribution test; parameters: species or system ICR mice; settings: ICR, mouse, heart, po, 100 mg/kg; read-out: P ratio Heart
measure name: Kp

[[record]]
compound = "CO/N=C1/CN(c2nc3c(cc2F)c(=O)c(C(=O)O)cn3C2CC2)C[C@@]1(C)CN [L-aspartate (Example 1)]"
readout_value = 4.28


// switching to the query compound
The compound CON=C1CN(c2nc3c(cc2F)c(=O)c(C(=O)O)cn3C2CC2)C[C@@]1(C)CN.Cl [Hydrochloride (Comparative Example 3)] showed Kp equal to 4.19

* * *

Listed below: concentration at 1.5 hr values for each entry.
experiment: In vivo tissue distribution test; parameters: species or system ICR mice; details: mouse, heart, po; ICR mice, p.o. 100 mg/kg, 1.5 hr; read-out: Heart concentration
Express it in ng/g; write the number only.

[[record]]
compound = "CO/N=C1/CN(c2nc3c(cc2F)c(=O)c(C(=O)O)cn3C2CC2)C[C@@]1(C)CN [L-aspartate (Example 1)]"
readout_value = 50000


Next:
response.value for CON=C1CN(c2nc3c(cc2F)c(=O)c(C(=O)O)cn3C2CC2)C[C@@]1(C)CN.Cl [Hydrochloride (Comparative Example 3)] (field: concentration at 1.5 hr) = 52700

* * *

Reported values of Cmax for individual entries
assay: In vivo pharmacokinetic test; parameters: species or system SD rats; details: SD, rat, plasma, po; rats, p.o. 100 mg/kg
Please format your answer as a value with the unit trailing.

[[record]]
compound = "CON=C1CN(c2nc3c(cc2F)c(=O)c(C(=O)O)cn3C2CC2)C[C@@]1(C)CN.Cl [Hydrochloride (Comparative Example 3)]"
readout_value = "7620 ng/mL"


For CO/N=C1/CN(c2nc3c(cc2F)c(=O)c(C(=O)O)cn3C2CC2)C[C@@]1(C)CN [L-aspartate (Example 1)] the compound record lists Cmax as 9080 ng/mL

* * *

test: In vivo tissue distribution test; set-up: species or system ICR mice; details: ICR, mouse, liver, po, 100 mg/kg; read-out: P ratio Liver
The following compounds are listed with their measured Kp values.

[[record]]
compound = "CO/N=C1/CN(c2nc3c(cc2F)c(=O)c(C(=O)O)cn3C2CC2)C[C@@]1(C)CN [L-aspartate (Example 1)]"
measure_name = "Kp"
readout_value = 11.2


Now, please, on to the next compound.
The measured Kp associated with CON=C1CN(c2nc3c(cc2F)c(=O)c(C(=O)O)cn3C2CC2)C[C@@]1(C)CN.Cl [Hydrochloride (Comparative Example 3)] reads 10.5

* * *

assay: In vivo pharmacokinetic test; parameters: species or system SD rats; conditions: SD, rat, plasma, iv; rats, i.v. 10 mg/kg
measure name: half-life (h)
Use h as the unit, but write only the number.

// sample CO/N=C1/CN(c2nc3c(cc2F)c(=O)c(C(=O)O)cn3C2CC2)C[C@@]1(C)CN [L-aspartate (Example 1)] , its half-life was 2.05
